Cited source for all entries: patent US20220289794A1

# Assay notes: in vitro
# Settings: human, fresh human red blood cells (washed), pH 7.4
Non-standard residues stand in square brackets, D forms with d. Residues, ends and D or L forms follow the SMILES beside them. dDip = N[C@@H](C(=O)O)C(c1ccccc1)c1ccccc1; 2Nal = N[C@@H](Cc1ccc2ccccc2c1)C(=O)O; d2Nal = N[C@H](Cc1ccc2ccccc2c1)C(=O)O
Readout type: HC50 at 0.5 h (µg/mL)
Give just the numeric value; µg/mL need not be written.

Study these solved cases before continuing.
Request: Please report the recorded HC50 at 0.5 h for N=C(N)NCCC[C@H]1NC(=O)[C@H](Cc2ccc3ccccc3c2)NC(=O)[C@H](Cc2ccc3ccccc3c2)NC(=O)[C@H](Cc2c[nH]c3ccccc23)NC(=O)[C@@H](CCCNC(=N)N)NC(=O)[C@@H](CCCNC(=N)N)NC(=O)[C@@H](CCCNC(=N)N)NC1=O [IFX-113, c[arg-arg-arg-arg-Trp-NaI-NaI]] (cyclo([dR][dR][dR][dR]W[2Nal][2Nal])) .
Result: 365

Request: Please report the recorded HC50 at 0.5 h for NCCCC[C@H]1NC(=O)[C@@H](CCCCN)NC(=O)[C@@H](CCCCN)NC(=O)[C@@H](Cc2ccc3ccccc3c2)NC(=O)[C@@H](Cc2ccc3ccccc3c2)NC(=O)[C@@H](Cc2c[nH]c3ccccc23)NC(=O)[C@@H](CCCCN)NC(=O)[C@@H](CCCCN)NC1=O [IFX-133, c[lys-lys-lys-lys-lys-trp-naI-naI]] (cyclo([d2Nal][d2Nal][dK][dK][dK][dK][dK][dW])) .
Result: 580

Please look at the following compound next.
Request: Please report the recorded HC50 at 0.5 h for N=C(N)NCCC[C@H](NC(=O)[C@H](CCCNC(=N)N)NC(=O)[C@@H](N)CCCNC(=N)N)C(=O)N[C@@H](CCCNC(=N)N)C(=O)N[C@@H](C(=O)N[C@@H](C(=O)N[C@@H](C(=O)O)C(c1ccccc1)c1ccccc1)C(c1ccccc1)c1ccccc1)C(c1ccccc1)c1ccccc1 [IFX-072-1] (H-RRRR[dDip][dDip][dDip]-OH) .
Result: 470
